Source: paper PMC11979273

# Experiment Notes: Multiple ascending-dose (MAD) study, plasma pharmacokinetics
# Assay type: in vivo, human
# Protocol Conditions: both sexes, human, plasma, oral, 40 mg, MAD 40 mg (N = 10), D1, after standard meal, mean (SD); read-out: AUC0–24h

- Compound: "Cc1nc(-c2cnc(N3CCN(CCCc4c[nH]c5ccc(C#N)cc45)CC3)nc2)sc1C(N)=O [HEC113995PA·H2O]"
  AUC(0-t) [ng·h/mL]: 2930

====

# Experiment Notes: Single ascending-dose (SAD) study, plasma pharmacokinetics
# Assay type: in vivo, human
# Protocol Conditions: both sexes, human, plasma, oral, 60 mg, SAD single dose 60 mg, N = 8, mean (SD); read-out: AUC0-t
Measured Endpoint: AUC(0-t) (ng·h/mL)

- Compound: "Cc1nc(-c2cnc(N3CCN(CCCc4c[nH]c5ccc(C#N)cc45)CC3)nc2)sc1C(N)=O [HEC113995PA·H2O]"
  Unit Label: "ng·h/mL"
  Observed Value: 4100
